What melting point was measured for each of the following?
// units = °C; emit number, no label

Lab note: measured melting point of `Fc1cc2c(cc1-c1cccnc1)CCC(=S)N2` was 248

Lab note: measured melting point of `CCN1C(=O)CCc2cc(-c3cccnc3)ccc21` was 91

Lab note: measured melting point of `O=C1CCc2cc(-c3cncc4ccccc34)cc3c2N1CC3` was 185

Lab note: measured melting point of `O=C1CCc2cc(-c3cccnc3)cc(F)c2N1` was 203

Lab note: measured melting point of `O=C1COc2cc(-c3cccnc3)ccc2N1` was 256

Lab note: measured melting point of `O=C1CCc2cc(-n3ccnc3)cc3c2N1CC3` was 124

Lab note: measured melting point of `S=C1CCc2cc(-c3cccnc3)ccc2N1` was 267

Lab note: measured melting point of `O=C1CCc2cc(-c3cccnc3)cc3c2N1CC3` was 152

Lab note: measured melting point of `O=C1CCc2cc(-c3cccnc3)cc3c2N1CCC3` was 123

Lab note: measured melting point of `O=C1CCc2cc(-c3ccncc3)cc3c2N1CC3` was 174

----------
Where a name gives a salt, the structure may show the parent alone.
PROPERTY_MEASURED: melting point (°C)
// units = °C; emit number, no label

Lab note: measured melting point of CC(c1cc2c3c(c1)CCN3C(=O)CC2)n1ccnc1 (centres unmarked) was 197

Lab note: measured melting point of S=C1CCc2cc(-c3cccnc3)cc3c2N1CC3 (as salt: HCl) was 283

Lab note: measured melting point of `O=C1CCc2cc(-c3cccnc3)ccc2N1` was 189

Lab note: measured melting point of `O=C(c1ccncc1)c1cc2c3c(c1)CCN3C(=O)CC2` was 184

Lab note: measured melting point of `CC1(C)CC(=O)N2CCc3cc(-c4cccnc4)cc1c32` was 180

----------
- ASSAY_TARGET: steroid 11-β-hydroxylase CYP11B1 (hCYP11B1) (Homo sapiens, UniProt P15538)
- Construct: expressed in transfected cells; host or cells: V79 MZh11B1 (V79 Chinese hamster cells)
- Sequence (P15538 25-503): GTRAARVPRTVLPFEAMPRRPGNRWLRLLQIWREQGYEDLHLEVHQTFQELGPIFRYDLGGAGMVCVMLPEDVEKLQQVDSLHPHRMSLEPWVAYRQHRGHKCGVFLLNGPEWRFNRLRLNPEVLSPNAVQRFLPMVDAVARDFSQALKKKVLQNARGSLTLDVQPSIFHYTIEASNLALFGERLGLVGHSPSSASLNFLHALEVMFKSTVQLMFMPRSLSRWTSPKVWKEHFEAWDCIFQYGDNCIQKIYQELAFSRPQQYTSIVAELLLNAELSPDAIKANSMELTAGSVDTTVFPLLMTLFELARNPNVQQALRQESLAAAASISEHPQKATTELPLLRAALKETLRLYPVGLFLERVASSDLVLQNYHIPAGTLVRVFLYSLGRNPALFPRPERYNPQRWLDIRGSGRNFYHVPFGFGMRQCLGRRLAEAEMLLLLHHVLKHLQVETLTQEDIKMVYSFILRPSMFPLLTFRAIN
- ASSAY_SUMMARY: Inhibition test in V79 MZh11B1 cells (test system B)
- Assay type: cell-based
- CONDITION_DESCRIPTION: Table 1, V79 MZh11B1 cells, read-out: IC50 V79 11B1 hCYP11B1
What IC50 was measured for each of the following?
The answer consists of two parts: a number and, after it, its unit.

Lab note: measured IC50 of O=C1CCc2cc(-c3cccnc3)ccc2N1 [Example 1] was 6.75 µM

Lab note: measured IC50 of O=C1CCc2cc(-c3cccnc3)cc(Cl)c2N1 [Example 12] was 1.67 µM

Lab note: measured IC50 of COc1cncc(-c2ccc3c(c2)CCC(=O)N3C)c1 [Example 6] was 0.087 µM

Lab note: measured IC50 of CCN1C(=O)CCc2cc(-c3cccnc3)ccc21 [Example 9] was 5.97 µM
